- Test system: 993429-296-R-J1-PDC complex spheroid growth, percent test/control;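 note: spheroids exposed to compounds for seven days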
- PROCEDURE_DETAILS: Anticancer human tumor 993429-296-R-J1-PDC patient-derived uterine sarcoma cell line growth inhibition [Asc]
- DETAILS: second compound 0.1 µM; first compound 0.03 µM; hits give low values
MEASURED_QUANTITY: viability, T/C (%)
Answer format: numeric, % implied, no suffix.

COMPOUND	viability, T/C [%]
CCN1C(C(=O)NC23CCC(C(=O)O)(CC2)CC3)C(c2cccc(Cl)c2F)C2(C(=O)Nc3cc(Cl)ccc32)C12CCCCC2 (stereo unspecified) + CNC(C)C(=O)NC1CN(S(=O)(=O)c2cccc(S(=O)(=O)N3CCC4CCC(C(=O)NC(c5ccccc5)c5ccccc5)N4C(=O)C(NC(=O)C(C)NC)C3)c2)CCC2CCC(C(=O)NC(c3ccccc3)c3ccccc3)N2C1=O	50

[ask] Give the reported viability, T/C for Cc1nc(N2CCC3(CC2)COC(C)C3N)c(CO)nc1Sc1ccnc(N)c1Cl (stereo unspecified) + CNC(C)C(=O)NC1CN(S(=O)(=O)c2cccc(S(=O)(=O)N3CCC4CCC(C(=O)NC(c5ccccc5)c5ccccc5)N4C(=O)C(NC(=O)C(C)NC)C3)c2)CCC2CCC(C(=O)NC(c3ccccc3)c3ccccc3)N2C1=O (system: 993429-296-R-J1-PDC complex spheroid growth, percent test/control).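 Note: spheroids exposed to compounds for seven days.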
[reply] 54.9

[ask] Also need NC(=O)C(=Cn1cnc(-c2cc(C(F)(F)F)cc(C(F)(F)F)c2)n1)c1cncnc1 + Cc1c(S(C)(=O)=O)c(-c2cc(F)cc(N3CCN(c4ccc(NS(=O)(=O)c5ccc(NC(CCN6CCC(C(=O)OCCCP(=O)(O)O)CC6)CSc6ccccc6)c(S(=O)(=O)C(F)(F)F)c5)cc4)CC3)c2)c(-c2ccc(Cl)cc2)n1C(C)C , thanks.
[reply] 17.5

[ask] Then this compound: NC(=O)C(=Cn1cnc(-c2cc(C(F)(F)F)cc(C(F)(F)F)c2)n1)c1cncnc1 + CNC(C)C(=O)NC1CN(S(=O)(=O)c2cccc(S(=O)(=O)N3CCC4CCC(C(=O)NC(c5ccccc5)c5ccccc5)N4C(=O)C(NC(=O)C(C)NC)C3)c2)CCC2CCC(C(=O)NC(c3ccccc3)c3ccccc3)N2C1=O
[reply] 33.3

[ask] Try this compound too: Cc1nc(N2CCC3(CC2)COC(C)C3N)c(CO)nc1Sc1ccnc(N)c1Cl (stereo unspecified) + Cc1c(S(C)(=O)=O)c(-c2cc(F)cc(N3CCN(c4ccc(NS(=O)(=O)c5ccc(NC(CCN6CCC(C(=O)OCCCP(=O)(O)O)CC6)CSc6ccccc6)c(S(=O)(=O)C(F)(F)F)c5)cc4)CC3)c2)c(-c2ccc(Cl)cc2)n1C(C)C
[reply] 64.3

[ask] Now give it for CCN1C(C(=O)NC23CCC(C(=O)O)(CC2)CC3)C(c2cccc(Cl)c2F)C2(C(=O)Nc3cc(Cl)ccc32)C12CCCCC2 (stereo unspecified) + Cc1c(S(C)(=O)=O)c(-c2cc(F)cc(N3CCN(c4ccc(NS(=O)(=O)c5ccc(NC(CCN6CCC(C(=O)OCCCP(=O)(O)O)CC6)CSc6ccccc6)c(S(=O)(=O)C(F)(F)F)c5)cc4)CC3)c2)c(-c2ccc(Cl)cc2)n1C(C)C too.
[reply] 76.6
